# Test system: U251 CNS
# protocol.notes: NCI tumour cell line growth inhibition, 48 h
Listed below: TGI values for each entry.

# compound, TGI
rows = [
    ("Nc1cccc(S(=O)(=O)Nc2nnc(S(N)(=O)=O)s2)c1", "> 100 µM"),
    ("COC(=O)[C@@](C)(COC(=O)C(C)(C)C)NC(=O)OC(C)(C)C", "> 100 µM"),
    ("CC1(C)CC2(C)CC1CC2(O)c1ccccc1 (configuration not stated)", "> 100 µM"),
    ("CCCc1c(C(=O)OCC)[nH]c(-c2ccc(-c3[nH]c(C(=O)OCC)c(CCC)c3C(=O)OCC)s2)c1C(=O)OCC", "> 100 µM"),
    ("CCOC(=O)c1c(C)nc2c(c1-c1cn(-c3ccccc3)nc1-c1ccccc1)C(=O)c1ccccc1-2", "> 100 µM"),
    ("O=c1c2cc(-c3ccccc3)sc2ncn1Cc1ccc(Cl)c(Cl)c1", "38.6 µM"),
    ("CCc1cccc(C)c1N1C(=O)C(=O)C(c2nc3ccccc3o2)C(=O)C1=O", "> 100 µM"),
    ("CO[C@H]1O[C@@H]2CO[C@@H](c3ccccc3)O[C@H]2[C@@H]2C/C=C\\CCC[C@@]12O", "40.2 µM"),
    ("COC(=O)C12CC(NC(=O)c3csc([C@@H](C[C@H](C(C)C)N(C)C(=O)[C@@H](NC(=O)[C@H]4CCCCN4C)C4CC4)OC(C)=O)n3)(C1)C2", "> 16.7 µM"),
    ("CCCn1cnc2c(SCC(=O)O)nc(N)nc21", "> 100 µM"),
    ("O=C(C#Cc1ccccc1)N1c2ccccc2CC1c1c[nH]c2ccccc12 (configuration not stated)", "35.8 µM"),
    ("CC12CCCCC1=[N+]([O-])C(C)(C)N2O (configuration not stated)", "> 100 µM"),
]

----------
# Test system: MOLT-4 leukemia
# protocol.notes: NCI tumour cell line growth inhibition, 48 h
Listed below: TGI values for each entry.

# molecule, TGI
rows = [
    ("Nc1ccc(Nc2cc(=O)[nH]c(=O)[nH]2)cc1", "> 100 µM"),
    ("Cc1ccc(S(=O)(=O)N=NC=C2c3ccccc3N(O)c3ccccc32)cc1", "4.11 µM"),
    ("C=C/C(C)=C/C[C@]1(C)[C@H](C)[C@@H](OC(=O)CCC)[C@H](O)[C@@]23C(=C[C@H](OC)C[C@@H]12)[C@@H](OC(=O)CCC)O[C@H]3OC(C)=O", "1.55 µM"),
    ("Cc1cccc2c1c1ccc3c(c1n2C)C(=O)C=CC3=O", "2.99 µM"),
    ("CN1N=C(c2ccncc2)OC1c1cccc(C(F)(F)F)c1 (stereo not drawn)", "> 100 µM"),
    ("CN(C)c1nc(=NCc2ccco2)ss1", "44.8 µM"),
    ("CC(C)c1nc(N(C)S(C)(=O)=O)nc(-c2ccc(F)cc2)c1/C=C/[C@@H](O)C[C@@H](O)CC(=O)O", "> 100 µM"),
    ("Clc1cccc(N2CCN(CCCN3CCc4c([nH]c5ccccc45)C3c3cccnc3)CC2)c1 (stereo not drawn)", "39.8 µM"),
    ("CC(C)(C)C(=O)OCC1OC(N=[N+]=[N-])C(OC(=O)C(C)(C)C)C(OC(=O)C(C)(C)C)C1OC(=O)C(C)(C)C (stereo not drawn)", "> 100 µM"),
    ("N=C(N)SCCC(=O)CCSC(=N)N", "> 100 µM"),
    ("Cc1cc(C)nc(/C(=N\\NC(N)=O)C(=O)Nc2nc3ccc(C)cc3s2)c1", "> 100 µM"),
    ("COC(=O)C12CC(NC(=O)c3csc([C@@H](C[C@H](C(C)C)N(C)C(=O)[C@@H](NC(=O)[C@H]4CCCCN4C)C4CC4)OC(C)=O)n3)(C1)C2", "> 16.7 µM"),
    ("Cn1c(=O)c2[nH]c(SCCN3CCOCC3)nc2n(C)c1=S", "> 100 µM"),
]

----------
# Test system: SNB-75 CNS
# protocol.notes: NCI tumour cell line growth inhibition, 48 h
experimental.readout: TGI

# compound, result
records = [
    ("CC(=O)NC(CCCCN)C(=O)NCc1ccccc1 (stereo not drawn)", "> 100 µM"),
    ("O=[N+]([O-])c1ccc2oc(=Nc3ccccc3)c(Nc3ccccc3)nc2c1", "79.6 µM"),
    ("CC(=O)OC1C2CCC3C(C)(O)C4CC(O)C(C)(C)C4(O)C(O)CC13CC2(C)O (stereo not drawn)", "> 100 µM"),
]

----------
# Tested on: COLO 205 colon
# protocol.notes: NCI tumour cell line growth inhibition, 48 h

# compound, system.tested, TGI
rows = [
    ("O=[N+]([O-])c1nccn1CC(O)CN1CCCCC1 (centres undefined)", "COLO 205 colon", "> 100 µM"),
    ("COC(=O)CC(C(C(=O)OCc1ccccc1)C(C)O)N1C(=O)OC(c2ccccc2)C1c1ccccc1 (centres undefined)", "COLO 205 colon", "> 100 µM"),
    ("Cc1cc(C)nc(/C(=N\\NC(N)=O)C(=O)Nc2nc3ccc(C)cc3s2)c1", "COLO 205 colon", "> 73.5 µM"),
    ("NS(=O)(=O)c1ccc(N=Nc2c(O)[nH]c3ccc(C(=O)NCc4ccncc4)cc23)cc1", "COLO 205 colon", "> 25 µM"),
]

----------
Listed below: TGI values for each entry.
# System: NCI-H23 lung
# protocol.notes: NCI tumour cell line growth inhibition, 48 h

# molecule, TGI
measured = [
    ("COc1ccccc1N=Nc1c(O)c(S(=O)(=O)O)cc2cc(S(=O)(=O)O)ccc12", "> 100 µM"),
    ("N/C(=N\\NS(=O)(=O)c1ccccc1)Oc1ccc(Br)cc1Br", "> 100 µM"),
    ("C=C1C(=O)O[C@H]2[C@H]1CC/C(COC(=O)NCc1ccc(OC)cc1)=C\\CC[C@@]1(C)O[C@@H]21", "7.96 µM"),
    ("Cc1ccc(Sc2ccccc2[N+](=O)[O-])cc1", "78.2 µM"),
    ("c1cc(-c2nnc(SSc3ncnc4nc[nH]c34)o2)ccn1", "> 100 µM"),
    ("O=C1C=C2CCC[C@H]3OC(=O)C[C@@]23CC1", "> 100 µM"),
    ("Cl/C(N=Nc1ccccc1)=N/Nc1ccccc1", "> 100 µM"),
    ("COc1ccc(Nc2nc3ccccc3c3occc23)cc1", "12.4 µM"),
    ("O=S(=O)(O)c1cccc2cccc(N=Nc3c(O)ccc4ccccc34)c12", "> 100 µM"),
    ("CN(C)c1ccc(/C=C/C(=O)N[C@@H]2C(=O)N3[C@@H]2SC(C)(C)[C@@H]3C(=O)O)cc1", "> 100 µM"),
    ("CCc1ccccc1NC(=O)/C=C/c1ccccc1", "> 100 µM"),
    ("O=S1(=O)N(Cc2ccccc2)[C@@H](Cc2ccccc2)[C@H](O)[C@H](O)[C@H](Cc2ccccc2)N1Cc1ccccc1", "6.71 µM"),
    ("[O-]c1ccccc1C=Nc1ccc2c(c1)CCC2.[O-]c1ccccc1C=Nc1ccc2c(c1)CCC2.[O]=[U+2]=[O]", "> 100 µM"),
    ("C=C/C(C)=C/C[C@]1(C)[C@H](C)[C@@H](OC(=O)CCC)[C@H](O)[C@@]23C(=C[C@H](OC)C[C@@H]12)[C@@H](OC(=O)CCC)O[C@H]3OC(C)=O", "2.83 µM"),
    ("N=C(N)SCCC(=O)CCSC(=N)N", "> 100 µM"),
    ("C#CCNC(=O)ON1C(=O)CCC1=O", "> 100 µM"),
    ("CC(=O)NC(CCCCN)C(=O)NCc1ccccc1 (stereo unspecified)", "> 100 µM"),
    ("NC(=O)c1cc(N(CCO)CCO)c([N+](=O)[O-])cc1[N+](=O)[O-]", "> 100 µM"),
    ("CSc1ncc(Br)c(Sc2nc(N)nc3nc[nH]c23)n1", "> 100 µM"),
    ("COC(=O)NNC(c1ccc(Cl)cc1)c1ccc(Cl)cc1", "34.6 µM"),
    ("CCCCCN(CCCCC)CC(O)c1cc(Cl)ccc1OC (stereo unspecified)", "20.9 µM"),
    ("COc1ccc(NC(=O)/C=C(C)/C=C/C=C(C)/C=C/C2=C(C)CCCC2(C)C)cc1", "24.3 µM"),
    ("CCOc1ccc(N=NC2C(=O)N(C(=O)CC(=O)Nc3ccccc3)N=C2C)cc1 (stereo unspecified)", "> 100 µM"),
    ("Cc1nnc2n(c1=O)CCN2C", "> 100 µM"),
    ("O=[N+]([O-])c1nccn1CC(O)CN1CCCCC1 (stereo unspecified)", "> 100 µM"),
    ("COC(=O)C(CCC(=O)CCl)N1C(=O)c2ccccc2C1=O (stereo unspecified)", "22.8 µM"),
    ("CN(C)CCNC(=O)c1cccc2cc3cc(O)ccc3nc12", "3.24 µM"),
    ("Cc1ccc(N(O)C(C)(C)C)cc1", "> 100 µM"),
    ("CC(C)(O)/C=C/C(=O)[C@](C)(O)[C@H]1[C@H](O)C[C@@]2(C)[C@@H]3CC=C4[C@@H](C[C@H](O)C(=O)C4(C)C)[C@]3(C)C(=O)C[C@]12C", "15.5 µM"),
    ("Cc1ccc(-n2cc(-c3ccc(Cl)cc3)c3c(NN)ncnc32)cc1", "12.5 µM"),
    ("O=C1C(=O)N(c2ccc(Cl)cc2)C(=O)C(=O)C1c1nc2ccccc2s1", "> 100 µM"),
]

Source of measurements: PubChem BioAssay (NCI)
